Origin of values: ChEMBL document CHEMBL1123549

Assay: Pseudo-first-order rate constant for the decomposition of compound at 25 degree C in presence of KOAc/HCl at pH 5.64
Assay type: ADME
Conditions: buffer
ASSAY_METRIC: k0 (s⁻¹)
Response body: numeric value in s⁻¹, unit text excluded.

Recorded result, "CCOc1ccc(N(OC(=O)C(C)(C)C)C(C)=O)cc1" , k0: 0.0224

###

Assay: Pseudo-first-order rate constant for the decomposition of compound at 25 degree C in presence of K2HPO4/[…]/HCl at pH 6.77
Format: ADME
Details: buffer
ASSAY_METRIC: k0
Quick note: unit goes after the number.

Recorded result, "CCOc1ccc(N(OC(=O)C(C)(C)C)C(C)=O)cc1" , k0: 0.0219 s⁻¹

###

Experiment: Pseudo-first-order rate constant for the decomposition of compound at 25 degree C in presence of KOAc/HCl at pH 3.71
Format: ADME
Conditions: buffer
ASSAY_METRIC: k0 (s⁻¹)
Response body: numeric value in s⁻¹, unit text excluded.

Recorded result, "CCOc1ccc(N(OC(=O)C(C)(C)C)C(C)=O)cc1" , k0: 0.0246

###

Assay: Pseudo-first-order rate constant for the decomposition of compound at 25 degree C in presence of HCl at pH 1.00
Assay type: ADME
Conditions: buffer
ASSAY_METRIC: k0 (s⁻¹)
Response body: numeric value in s⁻¹, unit text excluded.

Recorded result, "CCOc1ccc(N(OC(=O)C(C)(C)C)C(C)=O)cc1" , k0: 0.0271

###

Assay: Pseudo-first-order rate constant for the decomposition of compound at 25 degree C in presence of K2HPO4/[…]/HCl at pH 5.75
Type: ADME
Settings: buffer
ASSAY_METRIC: k0 (s⁻¹)
Response body: numeric value in s⁻¹, unit text excluded.

Recorded result, "CCOc1ccc(N(OC(=O)C(C)(C)C)C(C)=O)cc1" , k0: 0.0226
